System: HOP-62
Assay: NCI tumour cell line growth inhibition, 48 h
The source made the active and inactive calls. Cut-off read from the data, not from the text of the source: active = GI50 up to about 1.1 µM and inactive = higher.
Hi! Could you answer with just one of these? yes for active, no for inactive

Enquiry: Look up the recorded call for CN(NC(=O)c1ccco1)C1=NCCCCN1 in this test.
Return: no

Enquiry: Look up the recorded call for O=C(/N=C(\Nc1ccccc1)SCCS/C(=N/C(=O)c1cccs1)Nc1ccccc1)c1cccs1 in this test.
Return: no

Enquiry: Look up the recorded call for COC(=O)C(CC(C)C)NC(=O)NC12CC3CC(CC(F)(C3)C1)C2 (configuration not stated) in this test.
Return: no

Enquiry: Look up the recorded call for C=CC(O)(CBr)CCC(Br)C(=C)C (configuration not stated) in this test.
Return: no

Enquiry: Look up the recorded call for CC(=O)OCC1OC(NC(=S)CCSc2nc3ccccc3c(=O)n2-c2ccccc2)C(OC(C)=O)C(OC(C)=O)C1OC(C)=O (configuration not stated) in this test.
Return: no

Enquiry: Look up the recorded call for COc1cc2c(cc1OC)[C@@H]([C@H](O)c1ccccc1)NCC2 in this test.
Return: no

Enquiry: Look up the recorded call for CCN(CC)c1ccc2cc(-c3nnc(-c4ccccc4)[nH]3)c(=O)oc2c1 in this test.
Return: no

Enquiry: Look up the recorded call for C=CCNC(=O)CN(CC(=O)O)C1CCCCC1N(CC(=O)O)CC(=O)O (configuration not stated) in this test.
Return: no

Enquiry: Look up the recorded call for CCOc1ccc(NCC(=O)N2CC(=O)Nc3ccccc32)cc1 in this test.
Return: no

Enquiry: Look up the recorded call for CCOC(=O)N/N=C(\CC)NO in this test.
Return: no

Enquiry: Look up the recorded call for COc1ccc(C2CC(=O)CC(c3ccc(OC)cc3)C23C(=O)NC(=O)NC3=O)cc1 (configuration not stated) in this test.
Return: no

Enquiry: Look up the recorded call for COc1cccc(N[C@@H]2c3cc4c(cc3C(c3cc(OC)c(O)c(OC)c3)[C@H]3C(=O)OCC32)OCO4)c1 (some centres not stated) in this test.
Return: yes

Enquiry: Look up the recorded call for CC1(C)OC(=O)N(c2ccccc2)C12C=Cc1cccc([N+](=O)[O-])c1O2 (configuration not stated) in this test.
Return: no

Enquiry: Look up the recorded call for c1ccc(-c2cc3[nH]c4ccccc4[nH]c-3cc(-c3ccccc3)nn2)cc1 in this test.
Return: no

Enquiry: Look up the recorded call for CCOP(=O)(OCC)[C@H]1OC(C)(C)O[C@@H]1CO in this test.
Return: no

Enquiry: Look up the recorded call for Oc1cccc2ccc(SSc3ccc4cccc(O)c4n3)nc12 in this test.
Return: no

Enquiry: Look up the recorded call for COc1ccc2nc(NCN3C(=O)c4ccccc4C3=O)sc2c1 in this test.
Return: no

Origin of the recorded values: ChEMBL document CHEMBL1201862
